# target-system: IRAK4 (Homo sapiens, UniProt Q9NWZ3)
# test-description: 2-hour 10 μM ATP Biochemical Assay (MesoScale Detection format; IRAK4 phosphorylation of biotin labeled IRAK1 activation loop peptide)
# measurement-context: 0.1 nM IRAK4
property-name: IC50 (nM)

Solved entries (count: 5):
compound | units-of-measure | readout-value
COc1cccc(NC(=O)c2cn3cc(C4CCOCC4)nc3cc2OC)c1 [Example 157] | nM | 21
COc1cc(C(=O)Nc2cccc(C(F)F)n2)cn2cc(C3(OC)CC3)nc12 [Example 91] | nM | 79
COc1cc2nc(C3CCOCC3)cn2cc1C(=O)Nc1ccns1 [Example 156] | nM | 147
COc1cc2nc(C3CCOCC3)cn2cc1C(=O)Nc1ccn(C(F)F)n1 [Example 48] | nM | 13
CCc1ncc(F)cc1NC(=O)c1cn2cc(C3CCOCC3)nc2cc1OC [Example 128] | nM | 67

(1) COc1cc2nc(C3CCOCC3)cn2cc1C(=O)N[C@@H]1CCCC[C@H]1OC (racemic) [Example 155]
(2) COc1cccc(NC(=O)c2cn3cc(CC4CCOC4)nc3cc2OC)n1 (stereo not drawn) [Example 24]
(3) COc1cc2nc(C(C)(C)CC#N)cn2cc1C(=O)Nc1cccc(C(F)(F)F)n1 [Example 46]
Arrange the 3 compounds from largest to smallest IC50. The response must list the labels following the requested ordering.
1, 3, 2

---

# target-system: IRAK4 (Homo sapiens, UniProt Q9NWZ3)
# test-description: biochemical
property-name: IC50 (nM)

compound | units-of-measure | readout-value
Cn1ccc(NC(=O)c2cn3cc(C45CCC(C)(CC4)OC5)nc3cc2OC2CCC2)n1 | nM | 0.4

(1) COc1cc2nc(C3CCOCC3)cn2cc1C(=O)Nc1cccc(CO)n1
(2) CC12CC(c3cn4cc(C(=O)Nc5cccn(C(F)F)c5=O)c(OCCOC(F)F)cc4n3)(CO1)C2
Compare the recorded IC50 of 1 and 2 ; state which is larger. Kindly state the label of the option you pick.
1
(1: 13.7 nM, 2: 4.6 nM)

---

# target-system: UniProt:Q9NWZ3
# Sequence (Q9NWZ3 1-460): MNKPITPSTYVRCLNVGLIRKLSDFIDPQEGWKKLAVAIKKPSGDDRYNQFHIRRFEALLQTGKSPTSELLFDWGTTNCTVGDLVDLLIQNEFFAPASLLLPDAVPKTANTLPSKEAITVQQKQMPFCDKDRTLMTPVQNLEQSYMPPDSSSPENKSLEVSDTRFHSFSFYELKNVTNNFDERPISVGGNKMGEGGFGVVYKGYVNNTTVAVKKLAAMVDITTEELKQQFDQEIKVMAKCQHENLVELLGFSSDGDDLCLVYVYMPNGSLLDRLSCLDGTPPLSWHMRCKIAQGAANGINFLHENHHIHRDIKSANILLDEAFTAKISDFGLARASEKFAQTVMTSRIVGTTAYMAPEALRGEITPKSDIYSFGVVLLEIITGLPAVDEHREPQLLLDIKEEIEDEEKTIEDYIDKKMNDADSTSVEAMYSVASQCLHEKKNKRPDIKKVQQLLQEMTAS
# test-description: biochemical
property-name: IC50 (nM)

molecule | IC50, nM
CCOc1nc2nc(C34CCC(C)(CC3)OC4)cn2cc1C(=O)Nc1ccn(C)n1 | 5.4

(A) CC(C)Oc1nc(C(=O)Nc2ccn(C)n2)cn2cc(C34CCC(C)(C3)OC4)nc12 (stereo not shown)
(B) CC(C)Oc1cc2nc([C@@]34CC[C@@H](C3)OC4)cn2cc1C(=O)Nc1cnn2cccnc12 (single isomer, unassigned)
Just tell me: smaller IC50 value, A or B ? Refer to your chosen item by its label in the answer.
B

---

# target-system: IRAK4 (Homo sapiens)
# Sequence (Q9NWZ3 1-460): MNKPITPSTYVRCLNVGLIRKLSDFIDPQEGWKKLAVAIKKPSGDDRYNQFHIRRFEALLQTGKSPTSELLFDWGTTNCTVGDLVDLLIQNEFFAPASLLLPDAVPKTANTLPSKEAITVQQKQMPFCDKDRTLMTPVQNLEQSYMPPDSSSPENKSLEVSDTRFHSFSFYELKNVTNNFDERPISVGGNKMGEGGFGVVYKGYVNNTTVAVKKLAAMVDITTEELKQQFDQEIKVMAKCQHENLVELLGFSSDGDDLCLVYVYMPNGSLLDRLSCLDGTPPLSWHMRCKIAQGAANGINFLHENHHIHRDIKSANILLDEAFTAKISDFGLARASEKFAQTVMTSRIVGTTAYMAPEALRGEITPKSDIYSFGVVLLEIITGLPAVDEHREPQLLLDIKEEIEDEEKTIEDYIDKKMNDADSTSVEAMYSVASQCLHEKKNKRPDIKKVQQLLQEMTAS
# test-description: biochemical
property-name: IC50 (nM)

Reference set, count: 6
compound | target-system | readout-value
CC(C)Oc1nc2nc(C34COC(C)(C3)C4)cn2cc1C(=O)Nc1cccn2cnnc12 [Example 409] | IRAK4 (Homo sapiens) | 1.5
Cc1cnc2c(NC(=O)c3cn4cc(C56COC(CF)(C5)C6)nc4nc3OC(C)C)cnn2c1 [Example 434] | IRAK4 (Homo sapiens) | 0.5
CC(C)Oc1cc2nc([C@@]34CC[C@@H](C3)OC4)cn2cc1C(=O)Nc1ccn(C)n1 (single isomer, unassigned) [Example 580] | IRAK4 (Homo sapiens) | 1.7
COc1ccc2ncc(NC(=O)c3cn4cc(C56COC(C)(C5)C6)nc4cc3OC(C)C)n2n1 [Example 301] | IRAK4 (Homo sapiens) | 6.6
COc1ncccc1NC(=O)c1cn2cc(C34COC(C3)C4)nc2cc1OC(C)C [Example 545] | IRAK4 (Homo sapiens) | 1.3
CCOc1nc2nc(C34COC(C)(C3)C4)cn2cc1C(=O)Nc1cccc(C(F)F)n1 [Example 241] | IRAK4 (Homo sapiens) | 1.5

(P) CC(C)Oc1cc2nc([C@]34CC[C@H](C3)OC4)cn2cc1C(=O)Nc1cccc(C(F)F)n1 (single isomer, unassigned) [Example 591]
(Q) CCOc1nc(C(=O)Nc2cccc(F)c2Cl)cn2cc(C34COC(C)(C3)C4)nc12 [Example 485]
(R) Cn1ccc(NC(=O)c2cn3cc([C@@]45CC[C@@](C)(C4)OC5)nc3cc2OC2CCC2)n1 (single isomer, unassigned) [Example 610]
(S) COc1cc2nc(C3CCOCC3)cn2cc1C(=O)Nc1cc(F)cc(C(F)F)c1 [Example 169]
(T) C[C@]12CC[C@](c3cn4cc(C(=O)Nc5cccc(C(F)F)n5)nc(OC5CCC5)c4n3)(CO1)C2 (single isomer, unassigned) [Example 627]
Endpoint returns the given compounds ordered by ascending IC50. Write the labels, ordered according to the request.
P, T, R, Q, S
(P: 0.1 nM, T: 0.4 nM, R: 0.8 nM, Q: 9 nM, S: 29.6 nM)

---

# target-system: IRAK4 (Homo sapiens)
# test-description: 2-hour 10 μM ATP Biochemical Assay (MesoScale Detection format; IRAK4 phosphorylation of biotin labeled IRAK1 activation loop peptide)
# measurement-context: 0.1 nM IRAK4
# Method: Compounds of the invention were assessed for their ability to inhibit IRAK4 activity. The inhibitory properties of the compounds of the invention described herein can be evidenced by testing in any one of the following assays. The 2-hour 10 μM ATP Biochemical Assay employs a MesoScale Detection (MSD) format. The kinase reaction is based on the IRAK4 phosphorylation of a biotin labeled peptide (IRAK1 activation loop sequence 360-389). […]
property-name: IC50 (nM)

compound | IC50 (nM)
COc1cc2nc(C3CCOCC3)cn2cc1C(=O)N[C@H]1CC[C@@H](OC)CC1 [Example 161] | 346

(I) COc1cc2nc(C3CCOCC3)cn2cc1C(=O)N[C@@H]1C[C@H]1C1CCC1 (racemic) [Example 154]
(II) COc1cccc(NC(=O)c2cn3cc(C4CCC(OC)C4)nc3cc2OC)n1 (stereo not drawn) [Example 17]
(III) CCOc1cc2nc(C[C@@H]3CCOC3)cn2cc1C(=O)Nc1cccc(C(F)F)n1 [Example 65]
(IV) COc1cc2nc(C3CCOCC3)cn2cc1C(=O)Nc1cccc(C(F)(F)F)n1 [Example 203]
(V) COc1cc2nc(C3CCOCC3)cn2cc1C(=O)Nc1cccc2c1CCO2 [Example 107]
Sort entries by IC50 from minimum to maximum value. Write the labels, ordered according to the request.
III, II, IV, V, I
(III: 1 nM, II: 2 nM, IV: 4 nM, V: 13 nM, I: 412 nM)

---

# target-system: IRAK4 (Homo sapiens)
# Sequence (Q9NWZ3 1-460): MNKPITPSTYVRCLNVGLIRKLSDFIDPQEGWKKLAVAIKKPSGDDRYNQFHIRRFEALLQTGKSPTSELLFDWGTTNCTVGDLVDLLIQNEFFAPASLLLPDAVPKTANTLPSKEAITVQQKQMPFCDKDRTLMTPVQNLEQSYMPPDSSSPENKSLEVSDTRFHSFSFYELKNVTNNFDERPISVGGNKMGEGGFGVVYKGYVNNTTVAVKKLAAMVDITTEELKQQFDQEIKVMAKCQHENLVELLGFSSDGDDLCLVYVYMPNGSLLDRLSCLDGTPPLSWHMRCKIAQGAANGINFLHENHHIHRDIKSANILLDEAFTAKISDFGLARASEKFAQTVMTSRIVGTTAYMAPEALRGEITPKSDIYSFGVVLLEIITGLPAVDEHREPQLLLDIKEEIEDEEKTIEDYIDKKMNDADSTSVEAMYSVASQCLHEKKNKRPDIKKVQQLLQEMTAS
# test-description: biochemical
property-name: IC50 (nM)

// worked examples, IC50 included
molecule | IC50 / nM
COc1cc2nc(C3CCOCC3)cn2cc1C(=O)Nc1cccc(Cl)c1C | 47.7
COc1nc(C(=O)Nc2cccc(C(F)(F)F)n2)cn2cc(C34CCOC(C)(C3)C4)nc12 | 6.4

(P) Cc1ccn2ncc(NC(=O)c3cn4cc(C56COC(C)(C5)C6)nc4nc3OC(C)C)c2n1
(Q) O=C(Nc1cccc(C(F)(F)F)n1)c1cn2cc(C3CCOCC3)nc2cn1
Endpoint returns the identifier whose IC50 is numerically larger, either P or Q . Output the label that corresponds to your choice.
Q
(Q: 119 nM, P: 1.4 nM)

(A) CC12CCC(c3cn4cc(C(=O)Nc5cccn(C(F)F)c5=O)c(OC5CCC5)cc4n3)(CO1)C2 (stereo not shown)
(B) CC(C)Oc1cc2nc(C34CC(C#N)(C3)C4)cn2cc1C(=O)Nc1ccn(C)n1
Higher IC50: A or B ? // respond with label for picked entry
B
(B: 7.7 nM, A: 0.3 nM)

Data provenance: patent US20230087118A1
